Test Target: T1, CTNI quality control recombinant protein (PK2-CTNI-1, 170120, produced by the applicant) (human, UniProt P19429 2-210, limits assumed)
T1 construct: also called cardiac troponin I
T1 sequence (P19429 2-210 limits assumed): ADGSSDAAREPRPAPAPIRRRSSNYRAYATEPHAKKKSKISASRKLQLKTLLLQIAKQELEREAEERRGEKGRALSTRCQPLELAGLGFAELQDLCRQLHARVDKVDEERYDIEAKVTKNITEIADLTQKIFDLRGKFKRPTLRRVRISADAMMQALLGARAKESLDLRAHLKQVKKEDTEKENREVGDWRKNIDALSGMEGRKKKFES
Assay Method Text: AMC sensor kinetics, antibody captured, cTnI analyte
Method: Using the AMC sensor, the purified antibody was diluted with PBST to 10 μg/ml, and the CTNI quality control recombinant protein (PK2-CTNI-1, 170120, produced by the applicant) was serially diluted with PBST to 400 nmol/ml, 200 nmol/ml, 100 nmol/ml, 50 nmol/ml, 25 nmol/ml, 12.5 nmol/ml, 6.25 nmol/ml, and 0 nmol/ml.
Quick list: Kd per entry.
Give your result in nM as a bare value.

According to the records, this binder Mutation 1-51 (antibody, V domains shown, built as for Mutation 1) VH: EVQLQQSGAELVKPGASVKLSCTASGFNLKDYYMHWMKQRTEQGLDWIGRIDPEDGETRYAPEFQGKATITADTSSNTAYLQLSTLTSEDTAVYYCARYYSSYLPFVYWGQGTLVTASA VL: DVVMTQTPLSLSVSLGDQASISCRSSQSLIYSNRHTYLHWYLQKPGQSPKLLIFQLSNRFSGVPDRFSGSGSGTDFTLKINRVEAEDLGVYFCSQSTHLPYTFGSGTKLEIKR displays Kd of 0.765

Entry Mutation 1-52 (antibody, V domains shown, built as for Mutation 1) VH: EVQLQQSGAELVKPGASVKLSCTASGFNIKDYFMHWMKQRTEQGLDWIGRIDPEDAETRYAPEFQGKATITADTSSNTAYLQLSTLTSEDTAVYYCARYYSSYVPFVYWGQGTLVTASA VL: DVVMTQTPLSLSVSLGDQASISCRSSQSLLYSNRHTYLHWYLQKPGQSPKLLIFQVSNRFSGVPDRFSGSGSGTDFTLKINRVEAEDLGVYFCSQSTHLPFTFGSGTKLEIKR ; Kd = 0.941
